PROTOCOL DETAILS: Fraction unbound in mouse plasma
Assay type: ADME, cell-free
OUTCOME MEASURE: fraction unbound

>>> print(df.to_string())
                                   molecule   outcome_measure  assay_value
0  CCS(=O)(=O)c1ccc(S(=O)(=O)NC)cc1Nc1cc(Nc2ccc(Cl)cn2)ncn1  fraction unbound        0.035

* * *

PROTOCOL DETAILS: Clearance in Sprague-Dawley rat plasma at 1 mg/kg, iv administered as 30 mins infusion by LC-MS/MS analysis
Format: ADME, organism-based
OUTCOME MEASURE: log10(clearance) (log10 of the value in mL/min/kg)

>>> print(df.to_string())
                                   molecule   outcome_measure  assay_value
0  CNS(=O)(=O)c1ccc(OC(F)(F)F)c(Nc2cc(Nc3ccc(Cl)cn3)ncn2)c1  log10(clearance)         1.08
1  CCS(=O)(=O)c1ccc(S(=O)(=O)NC)cc1Nc1cc(Nc2ccc(Cl)cn2)ncn1  log10(clearance)         1.15
2  CNS(=O)(=O)c1ccc(OCC(F)(F)F)c(Nc2cc(Nc3ccc(Cl)cc3)ncn2)c1  log10(clearance)         1.30
3  CNS(=O)(=O)c1cccc(Nc2cc(Nc3cccc(C)c3)ncn2)c1  log10(clearance)         1.93
4  CNS(=O)(=O)c1ccc(SC)c(Nc2cc(Nc3ccc(Cl)cc3)ncn2)c1  log10(clearance)         0.65
5  CNS(=O)(=O)c1ccc(OC)c(Nc2cc(Nc3ccc(Cl)cn3)ncn2)c1  log10(clearance)         1.00
6  CNS(=O)(=O)c1ccc(N(C)C)c(Nc2cc(Nc3ccc(Cl)cc3)ncn2)c1  log10(clearance)         1.72
7  CNS(=O)(=O)c1cccc(Nc2cc(Nc3ccc(Cl)cn3)ncn2)c1  log10(clearance)         1.20
8  CNS(=O)(=O)c1ccc(OC)c(Nc2cc(Nc3ccc(Cl)cc3)ncn2)c1  log10(clearance)         1.41
9  CNS(=O)(=O)c1cccc(Nc2cc(Nc3cccc(Cl)c3)ncn2)c1  log10(clearance)         1.72

* * *

SYSTEM NAME: Serine/threonine-protein kinase TNNI3K (Homo sapiens, UniProt Q59H18)
Sequence (Q59H18 whole entry): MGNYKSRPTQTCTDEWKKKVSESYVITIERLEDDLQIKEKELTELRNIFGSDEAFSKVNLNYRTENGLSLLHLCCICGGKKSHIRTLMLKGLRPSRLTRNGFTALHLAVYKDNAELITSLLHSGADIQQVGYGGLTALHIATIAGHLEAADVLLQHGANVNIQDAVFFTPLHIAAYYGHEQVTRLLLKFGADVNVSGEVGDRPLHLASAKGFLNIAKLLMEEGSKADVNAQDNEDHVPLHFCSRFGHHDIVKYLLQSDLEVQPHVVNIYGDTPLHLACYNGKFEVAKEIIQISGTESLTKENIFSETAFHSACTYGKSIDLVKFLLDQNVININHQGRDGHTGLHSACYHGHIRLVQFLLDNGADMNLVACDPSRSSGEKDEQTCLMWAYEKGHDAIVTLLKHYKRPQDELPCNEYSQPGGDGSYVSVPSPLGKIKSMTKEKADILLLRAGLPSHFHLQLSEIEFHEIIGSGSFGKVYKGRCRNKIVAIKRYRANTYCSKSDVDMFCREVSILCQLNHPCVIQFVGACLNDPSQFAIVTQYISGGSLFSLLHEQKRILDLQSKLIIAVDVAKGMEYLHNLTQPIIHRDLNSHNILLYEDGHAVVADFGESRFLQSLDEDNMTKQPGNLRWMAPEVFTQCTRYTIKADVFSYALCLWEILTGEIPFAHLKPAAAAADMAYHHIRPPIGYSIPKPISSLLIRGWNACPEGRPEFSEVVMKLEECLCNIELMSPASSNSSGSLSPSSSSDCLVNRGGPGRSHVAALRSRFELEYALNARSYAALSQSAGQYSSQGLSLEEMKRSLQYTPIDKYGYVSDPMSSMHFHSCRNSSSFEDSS
PROTOCOL DETAILS: Inhibition of 5-({[2-({[3-({4-[(5-hydroxy-2-methylphenyl)amino]-2-pyrimidinyl}amino)phenyl]carbonyl}amino)-ethyl]amino}carbonyl)-2-(6-hydroxy-3-oxo-3H-xanthen-9-yl)benzoic acid binding to human full length His/MBP-fused TNNI3K expressed in baculovirus expression system after 60 mins by fluorescence polarization assay
OUTCOME MEASURE: IC50

>>> print(df.to_string())
                                   molecule  outcome_measure  assay_value
0  CNS(=O)(=O)c1cccc(Nc2cc(Nc3cccc(C(C)C)c3)ncn2)c1             IC50        50 nM
1  CNS(=O)(=O)c1cccc(Nc2cc(Nc3cccc(OC)c3)ncn2)c1             IC50        63 nM
2  CNS(=O)(=O)c1cccc(Nc2cc(Nc3ccc(Cl)cn3)ncn2)c1             IC50        20 nM
3  CNS(=O)(=O)c1cccc(Nc2ncnc(Nc3cccc(C)c3)n2)c1             IC50        20 nM
4  CNS(=O)(=O)c1cccc(Nc2cc(Nc3cccc(Br)c3)ncn2)c1             IC50        79 nM
5  CNS(=O)(=O)c1ccc(S(C)(=O)=O)c(Nc2cc(Nc3ccc(Cl)cn3)ncn2)c1             IC50        13 nM
6  CNS(=O)(=O)c1cccc(Nc2cc(Nc3ccccc3)ncn2)c1             IC50        63 nM
7  CNS(=O)(=O)c1cccc(Nc2cc(Nc3ccc(C(F)(F)F)cc3)ncn2)c1             IC50        79 nM
8        CNc1cc(Nc2cccc(S(=O)(=O)NC)c2)ncn1             IC50       800 nM
9  CNS(=O)(=O)c1cccc(Nc2cc(Nc3cccc(C)c3)ncn2)c1             IC50        32 nM

* * *

PROTOCOL DETAILS: Half life in Sprague-Dawley rat plasma at 2 mg/kg, po administered as gastric bolus dose or 1 mg/kg, iv administered as 30 mins infusion by LC-MS/MS analysis
Format: ADME, organism-based
OUTCOME MEASURE: half-life (h)

In [3]: df
Out[3]:
                                   molecule  outcome_measure  unit  assay_value
0  CCS(=O)(=O)c1ccc(S(=O)(=O)NC)cc1Nc1cc(Nc2ccc(Cl)cn2)ncn1        half-life     h          2.3

* * *

Attribute: AUC/dose
Tested on: Rattus norvegicus
PROTOCOL DETAILS: Dose normalized AUC in Sprague-Dawley rat plasma at 2 mg/kg, po administered as gastric bolus dose by LC-MS/MS analysis
Assay type: ADME, organism-based
EXPERIMENTAL PARAMETERS: in vivo
OUTCOME MEASURE: AUC/dose (kg·h/L)

                                   molecule  outcome_measure  assay_value
0  CNS(=O)(=O)c1ccc(OC(F)(F)F)c(Nc2cc(Nc3ccc(Cl)cn3)ncn2)c1         AUC/dose         0.91
1  CNS(=O)(=O)c1ccc(S(C)(=O)=O)c(Nc2cc(Nc3ccc(Cl)cn3)ncn2)c1         AUC/dose         0.76
2  CNS(=O)(=O)c1ccc(OC(F)(F)F)c(Nc2cc(Nc3ccc(Cl)cc3)ncn2)c1         AUC/dose         0.86
3  CCS(=O)(=O)c1ccc(S(=O)(=O)NC)cc1Nc1cc(Nc2ccc(Cl)cn2)ncn1         AUC/dose         0.56
4  CNS(=O)(=O)c1ccc(SC)c(Nc2cc(Nc3ccc(Cl)cc3)ncn2)c1         AUC/dose          2.1
5  CNS(=O)(=O)c1cccc(Nc2cc(Nc3ccc(Cl)cn3)ncn2)c1         AUC/dose         0.67
6  CNS(=O)(=O)c1ccc(OCC(F)(F)F)c(Nc2cc(Nc3ccc(Cl)cn3)ncn2)c1         AUC/dose          2.3
7  CNS(=O)(=O)c1ccc(OCC(F)(F)F)c(Nc2cc(Nc3ccc(Cl)cc3)ncn2)c1         AUC/dose         0.32
8  CNS(=O)(=O)c1cccc(Nc2cc(Nc3cccc(C)c3)ncn2)c1         AUC/dose        0.037

* * *

Tested on: Heart
PROTOCOL DETAILS: Drug uptake in mouse heart at 100 mg/kg/day administered through diet
Type: ADME, organism-based
EXPERIMENTAL PARAMETERS: in vivo, read-out: Drug uptake
OUTCOME MEASURE: concentration (nM)

>>> print(df.to_string())
                                   molecule  system_name  unit  assay_value
0  CCS(=O)(=O)c1ccc(S(=O)(=O)NC)cc1Nc1cc(Nc2ccc(Cl)cn2)ncn1        Heart    nM         1100
